Test system: MOVAS cells
Protocol Details: Cytotoxicity assay, LDH release
Type: cell-based, mouse
Test Context: no dose given
Quantity Name: Cytotoxicity assay LDH release (% of cytotoxicity) (%)
Numbers only, in %.

In the examples that follow, each entry is paired with its recorded Cytotoxicity assay LDH release (% of cytotoxicity).
CCn1cnc2c(Nc3cnn(C)c3)ncnc21; 20
Cn1cc(Nc2ncccn2)cn1; 20
CCn1cnc2c(Nc3cnn(Cc4ccccn4)c3)ncnc21; 20

Go through the list and state Cytotoxicity assay LDH release (% of cytotoxicity) for each entry.
1. CCCn1cc(Nc2ncnc3c2ncn3CC)cn1
2. c1cnc(Nc2cnn(CC3CCCCC3)c2)nc1

Output:
[20, 15]
